Measured target: serotonin-1A receptor (5-HT1A) (Rattus norvegicus)
Sequence (P19327 whole entry): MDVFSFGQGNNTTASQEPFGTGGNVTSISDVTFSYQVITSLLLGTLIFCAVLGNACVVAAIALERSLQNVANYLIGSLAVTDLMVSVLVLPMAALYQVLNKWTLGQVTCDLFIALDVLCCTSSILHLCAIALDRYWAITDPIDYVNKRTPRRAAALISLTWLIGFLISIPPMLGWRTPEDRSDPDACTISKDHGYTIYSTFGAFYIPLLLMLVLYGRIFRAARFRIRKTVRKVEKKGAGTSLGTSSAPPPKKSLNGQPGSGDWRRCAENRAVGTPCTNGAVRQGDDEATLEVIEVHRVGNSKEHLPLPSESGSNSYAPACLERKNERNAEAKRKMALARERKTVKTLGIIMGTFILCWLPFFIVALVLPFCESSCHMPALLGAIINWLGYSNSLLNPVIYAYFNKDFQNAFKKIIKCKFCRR
Test name: biochemical
Type: binding, rat (Sprague-Dawley)
Condition info: selectivity for 5-HT1A over beta receptor; Beta IC50 from 3H-dihydroalprenolol binding
Endpoint: Ratio Beta IC50 / 5-HT1A IC50
Reply: number alone, nothing else.

Previously resolved entries follow.
[[record]]
molecule = "OC(CN[C@H]1CC[C@@H](c2ccccc2)CC1)COc1cccc2ccccc12 (some centres unmarked) [(Z-4-phenylcyclohexyl)]"
endpoint = "Ratio Beta IC50 / 5-HT1A IC50"
value_reported = 13

[[record]]
molecule = "C#CC(C)NCC(O)COc1cccc2ccccc12 (centres unmarked)"
endpoint = "Ratio Beta IC50 / 5-HT1A IC50"
value_reported = 7.1

[[record]]
molecule = "CC#CC(C)(C)NCC(O)COc1cccc2ccccc12 (centres unmarked)"
endpoint = "Ratio Beta IC50 / 5-HT1A IC50"
value_reported = 10.5


Query string: Tell me Ratio Beta IC50 / 5-HT1A IC50 reported for O=C(O)/C=C\C(=O)O.OC(CNC1CCCCC1)COc1cccc2[nH]ccc12 (centres unmarked)
Result string: 5.4

----------
Measured target: serotonin-1A receptor (5-HT1A) (Rattus norvegicus)
Test name: biochemical
Format: binding, rat (Sprague-Dawley)
Condition info: inhibition of 0.4 nM 3H-8OHDPAT binding, rat cortical membranes, 28 C, 30 minutes, pH 7.4
Endpoint: IC50 (nM)
Hi! Could you send only the number? It should be in nM, unit omitted.

Query string: Tell me IC50 reported for CCCCCNCC(O)COc1cccc2ccccc12 (stereo not drawn)
Result string: 23.4

Query string: Tell me IC50 reported for O=C(O)/C=C\C(=O)O.OC(CNC1CCCCC1)COc1cccc2[nH]ccc12 (stereo not drawn) [Cyclohexyl, maleate]
Result string: 10.3

Query string: Tell me IC50 reported for CC(C)(C)C(C)(C)NCC(O)COc1cccc2ccccc12 (stereo not drawn)
Result string: 16.8

Query string: Tell me IC50 reported for CC#CC(C)(C)NCC(O)COc1cccc2ccccc12 (stereo not drawn)
Result string: 38

Query string: Tell me IC50 reported for CCCCNCC(O)COc1cccc2ccccc12 (stereo not drawn)
Result string: 36.9

Query string: Tell me IC50 reported for C#CC(C)(C)NCC(O)COc1cccc2ccccc12 (stereo not drawn)
Result string: 88
